Procedure Summary: Binding ability of the receptor to the surface of Cytochrome c and activity expressed as Dissociation constant(Kd)
Set-up: species or system Equus caballus
pKd: −log10 of the molar value.

Smiles Input | pKd
O=C(O)C[C@H](NC(=O)c1cc(C(=O)N[C@@H](CC(=O)O)C(=O)O)cc(-c2ccc(-c3c4nc(c(-c5ccc(-c6cc(C(=O)N[C@@H](CC(=O)O)C(=O)O)cc(C(=O)N[C@@H](CC(=O)O)C(=O)O)c6)cc5)c5ccc([nH]5)c(-c5ccc(-c6cc(C(=O)N[C@@H](CC(=O)O)C(=O)O)cc(C(=O)N[C@H](CC(=O)O)C(=O)O)c6)cc5)c5nc(c(-c6ccc(-c7cc(C(=O)N[C@@H](CC(=O)O)C(=O)O)cc(C(=O)N[C@@H](CC(=O)O)C(=O)O)c7)cc6)c6ccc3[nH]6)C=C5)C=C4)cc2)c1)C(=O)O | 9.17
COC(=O)[C@H](CC(=O)O)NC(=O)c1cc(C(=O)N[C@@H](CC(=O)O)C(=O)OC)cc(-c2ccc(-c3c4nc(c(-c5ccc(-c6cc(C(=O)N[C@@H](CC(=O)O)C(=O)OC)cc(C(=O)N[C@@H](CC(=O)O)C(=O)OC)c6)cc5)c5ccc([nH]5)c(-c5ccc(-c6cc(C(=O)N[C@@H](CC(=O)O)C(=O)OC)cc(C(=O)N[C@H](CC(=O)O)C(=O)OC)c6)cc5)c5nc(c(-c6ccc(-c7cc(C(=O)N[C@@H](CC(=O)O)C(=O)OC)cc(C(=O)N[C@@H](CC(=O)O)C(=O)OC)c7)cc6)c6ccc3[nH]6)C=C5)C=C4)cc2)c1 | 5.77
O=C(O)c1ccc(-c2ccc(-c3c4nc(c(-c5ccc(-c6ccc(C(=O)O)cc6)cc5)c5ccc([nH]5)c(-c5ccc(-c6ccc(C(=O)O)cc6)cc5)c5ccc([nH]5)c(-c5ccc(-c6ccc(C(=O)O)cc6)cc5)c5nc3C=C5)C=C4)cc2)cc1 | 4.77
O=C(O)c1cc(C(=O)O)cc(-c2ccc(-c3c4nc(c(-c5ccc(-c6cc(C(=O)O)cc(C(=O)O)c6)cc5)c5ccc([nH]5)c(-c5ccc(-c6cc(C(=O)O)cc(C(=O)O)c6)cc5)c5ccc([nH]5)c(-c5ccc(-c6cc(C(=O)O)cc(C(=O)O)c6)cc5)c5nc3C=C5)C=C4)cc2)c1 | 5.82
